# Target desc: cholesteryl ester transfer protein (CETP) (Homo sapiens, UniProt P11597)
# Construct: the source of CETP was human lipoprotein-deprived serum (LPDS)
# Sequence (P11597 18-493): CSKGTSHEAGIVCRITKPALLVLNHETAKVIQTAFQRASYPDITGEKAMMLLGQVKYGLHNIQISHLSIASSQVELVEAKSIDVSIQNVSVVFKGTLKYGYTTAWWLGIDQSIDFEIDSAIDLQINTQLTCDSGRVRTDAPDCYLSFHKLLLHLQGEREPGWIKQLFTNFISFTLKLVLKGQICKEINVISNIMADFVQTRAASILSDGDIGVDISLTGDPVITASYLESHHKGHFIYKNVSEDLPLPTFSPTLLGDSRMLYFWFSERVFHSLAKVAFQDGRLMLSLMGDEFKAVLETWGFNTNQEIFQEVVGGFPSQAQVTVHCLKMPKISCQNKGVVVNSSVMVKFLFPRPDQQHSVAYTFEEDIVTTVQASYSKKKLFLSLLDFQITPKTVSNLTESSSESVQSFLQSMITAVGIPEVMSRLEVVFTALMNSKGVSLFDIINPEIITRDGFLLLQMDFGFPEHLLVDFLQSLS
# Protocol: CETP activity SPA assay in the presence of plasma (human lipoprotein-deprived serum as source of CETP)
# Test parameters: source of CETP was human lipoprotein-deprived serum (LPDS), transfer of radiolabeled cholesteryl ester from HDL donor to biotin-labeled LDL acceptor particles
# Protocol: Activity of CETP inhibitors was determined using a buffer assay system. Partially purified CETP transferred radiolabeled cholesteryl ester from HDL donor particles to biotin-labeled LDL acceptor particles. […] These beads captured the biotinylated acceptor particles and transferred radioactivity was measured. […] Inhibitory activity of compounds was determined as percentage of positive control activity containing CETP together with donor and acceptor particles. […]
Metric name: pIC50
Quick note: pIC50 values are minus log10 of concentrations in mol/L.

According to the records, this compound CC(C)(C)c1ccc(CN(CCc2cccc(C(F)(F)F)c2)C(=O)c2nc(Cl)cc3cc[nH]c23)cc1 [Compound 3.22] displays pIC50 of 6.76

Short answer for Cc1cc2cc[nH]c2c(C(=O)N(CCc2ccc(Cl)c(Cl)c2)Cc2ccc(C(C)(C)C)cc2)n1 [Compound 3.14] : pIC50 was 6.85

Entry CC(C)(C)c1ccc(CN(CCc2ccc(F)cc2)C(=O)c2ncc(F)c3cc[nH]c23)cc1 [Compound 3.15] , pIC50 reported as 6.36
